assay: protein stability index of a GFP-peptide fusion (GPS, HEK-293T) (PSI 1-6); higher = more stable; details: treatment: DMSO; c terminus: a fixed tail appended;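 also: 24-mer peptide tiles fused after GFP, lentivirally expressed, FACS-sorted into six equal bins by GFP/DsRed ratio, decoded by Illumina sequencing, PSI is the read-weighted mean bin number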
endpoint: protein stability index
Respond using a number only.

For ADFSSMLSEEEKEELKAELVQLED [TPD52L1] , what is its reported protein stability index?
5.47

Param item: MPEYRGQGIGSKIIKKVAEVALDK [SAT2]
3.65

Param item: VSCGFGGGAGSGFGGGYGGGLGGG [KRT13]
2.32

Param item: TKVQKKSLLLKKPLRVDLILENTS [NOP53]
2.71

Param item: MTSNPITWGQIKKTTQEAEKLLER [CDK11A]
4.55

Param item: HEAFKDELKTFRLKTRSWAGERSR [CDC25B]
3.57

Param item: RRVLPCIPSEEWPNPPTLQEAGLS [FAF2]
3.9

Param item: EDSINNSLVQLQASHQQQVLPPRQ [MYBL2]
4.93

Param item: YDYPEEEQLSGAGYRVSAALEEAD [EID1]
5.38

Param item: SARCVVSFNILVEDRVKLFGIEIE [PCDHGA10]
2.12

Param item: SYSFQNPSSFDPSMLLQRFSVAPH [RNF180]
2.58

Param item: SQMFPSSKARTKSLLGDDVFSTMA [FBF1]
2.89

Param item: WKKQQKCDECGKIFSQSSALILHQ [ZNF396]
2.54

Param item: DEDFTFGAYQPTVVSSEGRQSRRQ [FBF1]
4.77

Param item: SFRENWQRAWVRALNEQACRNGSS [C2CD2L]
2.7

Param item: EHKLKVVRDQISHCTVKLRQTTGL [TRIM9]
3.35

Param item: SQFKILVSLLENNIYVHDLLTFQQ [VPS39]
3.02

Param item: EWETEVEMDKLRASDIMEPNLTYV [CLCN6]
3.85

Param item: SHCDSPSPQEDGQIMFDVEMHTSR [BNIP3L]
4.79

Param item: NASTLRTINIKCHVHDPHGQVIWG [FBXO39]
2.17

Param item: QHVPEELDLSSSSQMSPLSLYGEN [ATF6]
4.97

Param item: GNPSTNSRVTASSGITIPKPPKPP [SMARCE1]
4.67

Param item: GSCSTVGGVGYGDSKDCILEPLSL [ZNF277]
3.59

Param item: HGDPIPKVEFTEEEIKTWGTVFQE [TPH1]
4.87

Param item: DTHNTNNLDTEELCEYFSQHLGEY [NECAB1]
4.41

Param item: VSIIDTELKVKDSQPIDLSACTVA [TRIP13]
3.28

Param item: NSPLHIAALNNHPDIMNLLIKSGA [FEM1C]
2.54

Param item: EVSADDETPNPPQSAQIACSSPSV [MAGEA10]
5.57

Param item: SITEMFGEFRTGKTQICHTLAVTC [RAD51]
2.59

Param item: MISAAQLLDELMGRDRNLAPDEKR [LUC7L3]
3.87

Param item: DQDPSVLYFSIHRYEQGRFWPHLK [HDAC6]
2.25

Param item: QKQRLREILEQQQQERNDTNFHGV [ZNF277]
4.53

Param item: EKLAPSEITEELPSSQLMPVKKQL [ZNF396]
5.17

Param item: ECVASNNVGEISVSTRLTVLREDQ [PTPRD]
4.63
